Numbers sourced from ChEMBL document CHEMBL5291721.

UniProtKB P34969 measurements of AC50, listed per entry.
Sequence (P34969 whole entry): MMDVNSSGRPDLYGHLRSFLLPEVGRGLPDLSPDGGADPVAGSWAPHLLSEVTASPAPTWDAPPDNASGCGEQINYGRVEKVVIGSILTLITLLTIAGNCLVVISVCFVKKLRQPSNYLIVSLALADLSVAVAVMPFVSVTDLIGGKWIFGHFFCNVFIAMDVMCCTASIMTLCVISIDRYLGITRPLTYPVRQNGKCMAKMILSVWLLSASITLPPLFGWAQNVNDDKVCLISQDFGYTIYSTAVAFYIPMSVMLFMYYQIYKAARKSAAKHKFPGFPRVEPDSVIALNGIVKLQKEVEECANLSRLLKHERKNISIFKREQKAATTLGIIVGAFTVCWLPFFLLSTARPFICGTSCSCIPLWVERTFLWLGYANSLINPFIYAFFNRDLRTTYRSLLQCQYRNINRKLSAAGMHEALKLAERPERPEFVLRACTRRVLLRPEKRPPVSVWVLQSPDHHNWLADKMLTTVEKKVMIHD
quantity.name: AC50

compound=CO[C@H]1/C=C/O[C@@]2(C)Oc3c(C)c(O)c4c(O)c(c(/C=N/N5CCN(C)CC5)c(O)c4c3C2=O)NC(=O)/C(C)=C\C=C\[C@H](C)[C@H](O)[C@@H](C)[C@@H](O)[C@@H](C)[C@H](OC(C)=O)[C@@H]1C val="> 10 µM"
compound=Cc1onc(-c2ccccc2)c1-c1ccc(S(N)(=O)=O)cc1 val="> 10 µM"
compound="CC(N)C(O)c1ccccc1 (centres undefined)" val="> 10 µM"
compound="COc1ccccc1OCCNCC(O)COc1cccc2[nH]c3ccccc3c12 (centres undefined)" val="1.58 µM"

---

Item-by-item account of AC50
# target.entity: Type-1 angiotensin II receptor (Homo sapiens, UniProt P30556); also: assay procedure not described here
# Sequence (P30556 whole entry): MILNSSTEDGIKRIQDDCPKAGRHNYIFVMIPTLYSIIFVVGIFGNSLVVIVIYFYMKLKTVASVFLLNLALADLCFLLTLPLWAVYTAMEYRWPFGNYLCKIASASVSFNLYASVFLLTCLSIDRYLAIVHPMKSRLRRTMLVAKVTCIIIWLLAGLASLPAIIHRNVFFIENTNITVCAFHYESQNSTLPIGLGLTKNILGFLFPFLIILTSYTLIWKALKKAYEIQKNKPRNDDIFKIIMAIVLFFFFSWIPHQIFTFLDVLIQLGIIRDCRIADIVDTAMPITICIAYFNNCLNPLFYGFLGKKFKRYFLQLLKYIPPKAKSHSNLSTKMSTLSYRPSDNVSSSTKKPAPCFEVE
quantity.name: AC50

compound="CC(CCc1ccc(O)cc1)NCCc1ccc(O)c(O)c1 (centres undefined)" target_entity="Type-1 angiotensin II receptor (Homo sapiens, UniProt P30556)" val="> 30 µM"
compound=CCN(CC)CCNC(=O)c1c(C)[nH]c(/C=C2\C(=O)Nc3ccc(F)cc32)c1C target_entity="Type-1 angiotensin II receptor (Homo sapiens, UniProt P30556)" val="4.3 µM"
compound=Cc1cc(C(C)(C)C)cc(C)c1CC1=NCCN1 target_entity="Type-1 angiotensin II receptor (Homo sapiens, UniProt P30556)" val="> 30 µM"
compound="CCC(C)C(CC)C(N)=O (centres undefined) [VALNOCTAMIDE]" target_entity="Type-1 angiotensin II receptor (Homo sapiens, UniProt P30556)" val="> 30 µM"
compound="CNC1=Nc2ccc(Cl)cc2C(c2ccccc2)=[N+]([O-])C1 [CHLORDIAZEPOXIDE]" target_entity="Type-1 angiotensin II receptor (Homo sapiens, UniProt P30556)" val="> 30 µM"
compound="C[C@]12CC[C@@H]3c4ccc(O)cc4C[C@@H](CCCCCCCCC[S+]([O-])CCCC(F)(F)C(F)(F)F)[C@H]3[C@@H]1CC[C@@H]2O (some centres undefined)" target_entity="Type-1 angiotensin II receptor (Homo sapiens, UniProt P30556)" val="> 30 µM"
compound="COc1cc2nc(N3CCN(C(=O)C4CCCO4)CC3)nc(N)c2cc1OC (centres undefined)" target_entity="Type-1 angiotensin II receptor (Homo sapiens, UniProt P30556)" val="> 30 µM"
compound=Cc1ncc2n1-c1ccc(Cl)cc1C(c1ccccc1F)=NC2 target_entity="Type-1 angiotensin II receptor (Homo sapiens, UniProt P30556)" val="> 30 µM"
compound=COc1ccc2nc3cc(Cl)ccc3c(Nc3cc(CN4CCCC4)c(O)c(CN4CCCC4)c3)c2n1 target_entity="Type-1 angiotensin II receptor (Homo sapiens, UniProt P30556)" val="> 30 µM"

---

# target.entity: Muscarinic acetylcholine receptor M1 (Homo sapiens); also: assay procedure not described here
# Sequence (P11229 whole entry): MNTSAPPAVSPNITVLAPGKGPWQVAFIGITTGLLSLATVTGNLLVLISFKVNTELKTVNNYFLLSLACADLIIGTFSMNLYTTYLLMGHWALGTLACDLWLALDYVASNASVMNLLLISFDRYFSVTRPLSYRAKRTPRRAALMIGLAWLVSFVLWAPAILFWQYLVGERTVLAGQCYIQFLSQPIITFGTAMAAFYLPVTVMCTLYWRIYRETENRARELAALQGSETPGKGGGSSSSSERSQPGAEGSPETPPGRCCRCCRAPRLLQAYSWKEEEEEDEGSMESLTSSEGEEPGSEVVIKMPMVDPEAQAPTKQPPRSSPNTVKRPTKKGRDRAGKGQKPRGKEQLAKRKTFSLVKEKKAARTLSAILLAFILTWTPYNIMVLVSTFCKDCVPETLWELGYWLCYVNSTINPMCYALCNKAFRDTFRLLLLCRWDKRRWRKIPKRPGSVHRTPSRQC
# Type: functional
quantity.name: AC50

compound="CC(=O)N[C@@H](CS)C(=O)O [ACETYLCYSTEINE]" val="> 30 µM"
compound="CCOC(=O)C1=C[C@]2(CC)CCCN3CCc4c(n1c1ccccc41)[C@@H]32 [VINPOCETINE]" val="> 30 µM"
compound="O=C1CN=C(c2ccccn2)c2cc(Br)ccc2N1 [BROMAZEPAM]" val="> 10 µM"
compound="CC(S)C(=O)NCC(=O)O (configuration not stated) [TIOPRONIN]" val="> 30 µM"
compound="CCC1(c2ccccc2)CCC(=O)NC1=O (configuration not stated) [GLUTETHIMIDE]" val="> 10 µM"
compound=CCC[C@H](NC(=O)[C@@H]1[C@H]2CCC[C@H]2CN1C(=O)[C@@H](NC(=O)[C@@H](NC(=O)c1cnccn1)C1CCCCC1)C(C)(C)C)C(=O)C(=O)NC1CC1 val="> 10 µM"
compound="O=C(O)c1ccccc1Nc1cc(Cl)ccc1C(=O)O [LOBENZARIT]" val="> 30 µM"
compound="COc1cc(N)c(Cl)cc1C(=O)NC1CCN(Cc2ccccc2)CC1 [CLEBOPRIDE]" val="> 30 µM"
compound="CCC(=O)O[C@]1(C(=O)SCF)[C@H](C)C[C@H]2[C@@H]3C[C@H](F)C4=CC(=O)C=C[C@]4(C)[C@@]3(F)[C@@H](O)C[C@@]21C [FLUTICASONE PROPIONATE]" val="> 30 µM"
compound=CC(=O)SC[C@@H](C)C(=O)N1CCC[C@H]1C(=O)N[C@@H](Cc1ccccc1)C(=O)O val="> 30 µM"
compound="CC(C)N(CCC(C(N)=O)(c1ccccc1)c1ccccn1)C(C)C (configuration not stated) [DISOPYRAMIDE]" val="> 10 µM"
compound="Cc1cccc(N2CC(CO)OC2=O)c1 (configuration not stated) [TOLOXATONE]" val="> 30 µM"
compound="CN1CCC(=C2c3ccccc3CCc3cccnc32)CC1 [AZATADINE]" val="0.11 µM"
compound="CC(=O)O[C@]1(C(C)=O)CC[C@H]2[C@@H]3C=C(C)C4=CC(=O)CC[C@@H]4[C@H]3CC[C@@]21C [NOMEGESTROL ACETATE]" val="> 30 µM"
compound="C=C[C@@]1(C)CC(=O)[C@]2(O)[C@@]3(C)[C@@H](O)CCC(C)(C)[C@@H]3[C@H](O)[C@H](OC(C)=O)[C@@]2(C)O1 [COLFORSIN]" val="> 30 µM"
compound="CCCCCC(=O)O[C@]1(C(C)=O)CC[C@H]2[C@@H]3CCC4=CC(=O)CC[C@]4(C)[C@H]3CC[C@@]21C [HYDROXYPROGESTERONE CAPROATE]" val="> 30 µM"
compound="Cn1cnc2c(F)c(Nc3ccc(Br)cc3Cl)c(C(=O)NOCCO)cc21 [SELUMETINIB]" val="> 10 µM"
